- testedSystem: Fibroblast growth factor receptor 4 (Homo sapiens)
- Sequence (P22455 whole entry): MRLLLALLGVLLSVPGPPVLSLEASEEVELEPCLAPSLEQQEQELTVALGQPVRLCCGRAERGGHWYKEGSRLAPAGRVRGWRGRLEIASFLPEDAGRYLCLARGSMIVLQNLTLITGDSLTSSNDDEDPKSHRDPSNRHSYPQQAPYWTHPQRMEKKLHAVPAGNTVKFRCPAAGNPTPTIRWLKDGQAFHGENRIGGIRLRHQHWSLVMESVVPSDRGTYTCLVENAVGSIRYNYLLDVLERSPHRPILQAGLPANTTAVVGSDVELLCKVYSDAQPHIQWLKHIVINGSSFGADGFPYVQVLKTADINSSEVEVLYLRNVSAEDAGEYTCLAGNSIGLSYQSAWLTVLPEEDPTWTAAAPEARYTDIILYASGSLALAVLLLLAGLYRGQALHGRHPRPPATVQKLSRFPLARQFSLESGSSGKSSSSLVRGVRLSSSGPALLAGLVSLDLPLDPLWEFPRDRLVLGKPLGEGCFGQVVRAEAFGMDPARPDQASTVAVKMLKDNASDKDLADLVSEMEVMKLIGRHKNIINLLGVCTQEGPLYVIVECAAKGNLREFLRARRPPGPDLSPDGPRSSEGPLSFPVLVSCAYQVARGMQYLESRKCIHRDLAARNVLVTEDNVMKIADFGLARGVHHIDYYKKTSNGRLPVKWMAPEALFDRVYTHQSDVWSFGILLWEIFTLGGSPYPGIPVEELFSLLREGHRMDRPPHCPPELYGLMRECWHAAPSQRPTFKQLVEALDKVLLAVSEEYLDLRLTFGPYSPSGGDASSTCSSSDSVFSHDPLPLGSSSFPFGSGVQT
- testSummary: Inhibition of FGFR4 (unknown origin) by Z'-LYTE Kinase assay
property: IC50 (nM)
Record the value in nM, omitting the unit from your answer.

Task item: Given the entry C=CC(=O)Nc1ccc(CN(C(=O)Nc2c(Cl)c(OC)cc(OC)c2Cl)c2cc(Nc3ccc(N4CCN(C)CC4)cc3)ncn2)cc1 , report its measured IC50.
Reply: 35

###

- testedSystem: Platelet-derived growth factor receptor beta (Homo sapiens)
- Sequence (P09619 whole entry): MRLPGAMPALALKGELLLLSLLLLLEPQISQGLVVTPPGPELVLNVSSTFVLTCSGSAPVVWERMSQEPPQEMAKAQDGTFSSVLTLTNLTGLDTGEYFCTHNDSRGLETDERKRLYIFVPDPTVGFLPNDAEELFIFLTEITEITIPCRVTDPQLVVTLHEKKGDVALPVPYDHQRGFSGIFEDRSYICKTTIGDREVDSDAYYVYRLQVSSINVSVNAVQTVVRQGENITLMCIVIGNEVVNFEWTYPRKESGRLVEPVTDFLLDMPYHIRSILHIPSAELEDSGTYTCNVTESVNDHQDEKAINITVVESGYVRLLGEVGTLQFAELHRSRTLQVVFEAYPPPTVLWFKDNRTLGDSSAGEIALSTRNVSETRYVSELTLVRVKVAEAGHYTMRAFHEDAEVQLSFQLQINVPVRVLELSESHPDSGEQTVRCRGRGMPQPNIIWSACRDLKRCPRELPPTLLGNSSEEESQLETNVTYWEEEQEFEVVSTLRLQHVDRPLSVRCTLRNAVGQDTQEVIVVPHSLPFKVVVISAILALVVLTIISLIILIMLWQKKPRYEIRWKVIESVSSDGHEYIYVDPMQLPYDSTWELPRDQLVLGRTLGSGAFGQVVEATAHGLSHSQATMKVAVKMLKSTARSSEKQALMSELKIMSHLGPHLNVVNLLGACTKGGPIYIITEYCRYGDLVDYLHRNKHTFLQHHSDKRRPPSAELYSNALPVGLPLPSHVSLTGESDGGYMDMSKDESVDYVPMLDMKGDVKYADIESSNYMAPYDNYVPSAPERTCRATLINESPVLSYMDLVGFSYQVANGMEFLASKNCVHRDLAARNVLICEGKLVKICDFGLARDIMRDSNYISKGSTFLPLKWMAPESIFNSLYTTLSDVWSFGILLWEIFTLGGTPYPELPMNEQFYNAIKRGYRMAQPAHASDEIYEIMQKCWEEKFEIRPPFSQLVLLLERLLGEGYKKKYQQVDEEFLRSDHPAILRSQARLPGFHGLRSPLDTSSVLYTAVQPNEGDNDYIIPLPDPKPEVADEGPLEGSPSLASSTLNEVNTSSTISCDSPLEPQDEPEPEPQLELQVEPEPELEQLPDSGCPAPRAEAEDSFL
- testSummary: Inhibition of recombinant PDGFRbeta (unknown origin) incubated for 60 mins by ELISA analysis
property: IC50 (nM)
Record the value in nM, omitting the unit from your answer.

Task item: Given the entry CNC(=O)c1cccc2cc(Oc3ccnc(NC(=O)c4ccc(N5CCN(CCO)CC5)cc4)c3)ccc12 , report its measured IC50.
Reply: 7.8
